experiment.notes: yeast display, Sf9 membrane polyspecificity reagent, FACS + sequencing; frameworks hold sequencing errors
measurement.label: polyreactivity (PSR sort gate)

These recorded examples may help you get a feel for the data.
Query: Field request: polyreactivity (PSR sort gate) | item: QVQLVESGGGLVQAGGSLRLSCAASGSIFADYAMGWYRQAPGKERELVAAITGSGGRTYYADSVKGRFTISRDNAKNTVYLQMNSLKPEDTAVYYCAAYQVVWDPYTRYDYWGQGTQVTVSS
Result: low polyreactivity

Query: Would you mind telling me what polyreactivity (PSR sort gate) value was observed for QFQLVESGGGLVQAGGSHRLSCAASGSIFFINAMGWYRQAPGKERELVASISQSGVSTYYADSVKGRFTISRDNAKNTVYFEMNSLKPEDTAVYYCATGPVRRARYVWSYTYYYWGQGTQVTVSS ?
Result: low polyreactivity

Query: Fill in: polyreactivity (PSR sort gate) of QVQLVESGGCLVQAGGSLRLSCAASGRTFYSYAMGWYRQAPGKERELVAAISYTGASTFYADSVKGRFTISRDNAKNTVYLQMNSLKPEDTAVYYCAARKVRFAVDYWGQGTQVTVSS is ___
Result: high polyreactivity

Query: Give its polyreactivity (PSR sort gate) value. Item: QVQLVESGGGLVQAGGSLRLSCAASGRIFYYNTMGWYRQAPGKERELVARITYSGGRTYYADSVKGRFTISRDNAKNTVYLQMNSLKPEDTAVYYCNAKPRYYQTGGGYWGQGTQVTVSS
Result: high polyreactivity

// moving on: another record for polyreactivity (PSR sort gate)
Query: What measured polyreactivity (PSR sort gate) goes with QVQLVESGGGLVQAGGSLRLSCAASGLTLDKYAMGWYRPAPRKERELVAGINSRGGSTYADSVKGRFTISRDNAKNTVYLQMNSMKPEDTAVYYCAADGKVQGGYYWGQGTQVTVSS ?
Result: high polyreactivity

* * *

experiment.notes: yeast display, Sf9 membrane polyspecificity reagent, FACS + sequencing; frameworks hold sequencing errors
measurement.label: polyreactivity (PSR sort gate)

Before answering, review these 5 worked examples.
Query: Any idea what its polyreactivity (PSR sort gate) is? The sequence is QVQLVESGGGLVQAGGSLSLSCAASGRIRRYTMGWYRQAPGKERELVASISGNGGSTYYADSVTGRFTISRDNAKNTVYLQMNSLKPEDTAVYDCARTKQEYTFGQFYLGDYWGQGTQVTVSS
Result: low polyreactivity

Query: State the recorded polyreactivity (PSR sort gate) for this entry: QVHLVESGGGLVQAGGSLRLSCAASGRIFTYYAMGWYRQAPGKERELFAGISRSGTSSYYADSVKGSFTISRDNAKNTVYLQMNSLKPEDTAVYYCAADVFRDDVWLDYWGQGTQVTVSS
Result: low polyreactivity

Query: Form field: reported polyreactivity (PSR sort gate) of QVQLVESGGGLVQAGGSLRLSCAASGITFYVYAMGWYRQAPGKERELVAANSSGGGSTYYADSVKGRFTISRDNAKNTVYLQMNSLKPEDTAVYYCNKLFPGTYDGAHGYWGQGTQVTVSS
Result: low polyreactivity

Query: Tell me the measured polyreactivity (PSR sort gate) of QFQLVESGGGLVQAGCSLRLSCAAYGSIFGGYAMGWYRQAPGKERELVAAISYRGASTYYADSVKGRFTISRDNAKNTVYLQMNILKPEDTAVYYCAVPARTRARVLYGYDYWGQGTQVTVSS , please.
Result: low polyreactivity

Query: Request the reported polyreactivity (PSR sort gate) associated with QVHLVDSGAGLVQAGGSLRLSCAASGYTFYANAMGWYRQAPGKERELVAGINRSGSTYYADSVKGRFTISRDNAKNTVYLQMNSLKPEDTAVYYCATAWHRGVRGRTSGAFDYWGQGTQVTVSS
Result: high polyreactivity

***
Query: Field request: polyreactivity (PSR sort gate) | item: QVQLVESGGGLVQAGGSLRLSCAASGSTFRYNVMGWYRQAPGKERELVATISYSGGSTNYADSVKGRFTISRDNAKNTDYLQMNSLKPEDTAVYYCAARYLYPFYRYWWYDYWGQGTQVTVSS
Result: high polyreactivity

Query: GET /values?readout=polyreactivity (PSR sort gate)&item= QVQLVESGGGLVQAGGSLRLSCAASGSIFLVNAMGWYRQAPGKERELVAAITWIGGSTYYADSVKGRFTISRDNAKNTVYLQMNSLKPEDTAVYYCAAYGKRLGGGGYYWGQGTQVTVSS
Result: high polyreactivity

Query: What value of polyreactivity (PSR sort gate) has been reported for the following sequence? QVQLVESGGGLVQAGGSLRLSCAASGRIFNYYAMGWYRLAPGKERELVAAINSGGSTYADSVKGRFTISRDNAKNTVYLEMNSLKPEDTAVYYCANDGQLQSGRERPSGYDHWGQGTQVTVSS
Result: low polyreactivity

Query: # polyreactivity (PSR sort gate) lookup, item QVQLVESGGGLVQAGGSLRLSCAASGRTYAYYAIGWYRQEPGKERELVAAISSGGSTYYADSVKGLFTISRDNAKNTVYLQMNSLKPEDTAVNYCATRDKQYYYWGQGTQVTLSS
Result: high polyreactivity

Query: Please look up its polyreactivity (PSR sort gate): QDQLVESGGGLVQAGGSLRLISAASGSTFRKYAMGWYRQAPGKEREFVAASTKRGGSTYYADSVKGRFTISRDNAKNTVYLLLNSLKPEDTAVYYCAAYKQDIGYYWGQGTQVTVSS
Result: high polyreactivity

Query: Look up polyreactivity (PSR sort gate): QVQLVESGGGLVQAGGSLRLSCAASGSTFYLYAMGWYRQAPGKERELVAAISWSDDTTYYADSVKGRFTISRDNAKNTVYLQMNSLKPEDTAVYYCATVPHYYYDYDYWGQGTQVTVSS
Result: low polyreactivity

* * *

experiment.notes: yeast display, Sf9 membrane polyspecificity reagent, FACS + sequencing; frameworks hold sequencing errors
measurement.label: polyreactivity (PSR sort gate)

Query: What does the data say about its polyreactivity (PSR sort gate)? Entry: QVQLVESGGGLVQAGGSLRLSCAASGFTFPYYAMGWYRQAPGKERELVAAISQGGASTRYADSVKGRFTISRDNAKNTVYLQMNSLKPEDTAVYYCAAKSRHFWMDYWGQGTQVTVSS
Result: high polyreactivity

Query: Consider the sequence shown here: QVQLVESGGGLVQAGGSLRLSCAASGITFGSYAMGWYRQAPGKERELVAAITWRGGTTYYADSVKARFTISRDNAKNTVYLQMNSLKPEDTAVYYCNTAWTGYPRYQYGGNYWGQGTQVTVSS What is its recorded polyreactivity (PSR sort gate)?
Result: high polyreactivity

* * *

experiment.notes: yeast display, Sf9 membrane polyspecificity reagent, FACS + sequencing; frameworks hold sequencing errors
measurement.label: polyreactivity (PSR sort gate)

Query: I'd like to know its polyreactivity (PSR sort gate). The sequence in question is QVQHVESGGGLVQAGGSLRLSCAASGRTFVTNAKGWYRQAPGKERELVAAISSSGGSTYYADSVKGRFTISRDNAKNTVYLQMNSLKPEDTAVYYCATDRYVTPRLRFDYWGQGTQVTVSS
Result: low polyreactivity

Query: Query (sequence): QDLLVESGGGLVQAGGSLGLSCAASGRIFSIYAMGWYRLAPGKERELVAAITRGGRTNYADSVKGRFTISRDNAKNTDYLQMISLKPEDTAVYYCADRLIDGVVKPYDYWGQGTQVTVSS ; field requested: polyreactivity (PSR sort gate)
Result: low polyreactivity

* * *

experiment.notes: yeast display, Sf9 membrane polyspecificity reagent, FACS + sequencing; frameworks hold sequencing errors
measurement.label: polyreactivity (PSR sort gate)

Query: Look up polyreactivity (PSR sort gate): QVQLVESGGGLVQAGGSLRLSCAASGIIFIGNAMGWYRQAPGKERELVAAISWNGVRTYYADSVKGRFTISRDNAKNTVYLQMNSLKPEYTAVYYCAAVTRRGIKLDYWGQGTQVTVSS
Result: high polyreactivity

Query: Need polyreactivity (PSR sort gate), item QVQLVDSGGGLVQAGGSLRLSCAASGITFKRYAMGWYRQAPGKERELVAAITGIGGSTYYADSVKGRFTISSDNAKNTVYLQMNSLKPEDTAVYYCAARNNKKYDYWGQGTQVTVSS
Result: high polyreactivity

* * *

experiment.notes: yeast display, Sf9 membrane polyspecificity reagent, FACS + sequencing; frameworks hold sequencing errors
measurement.label: polyreactivity (PSR sort gate)

Query: Fill blank: measured polyreactivity (PSR sort gate) of the sequence QVHLVESGGGLVQAGGSLRLSCAASGSTFAYNAMGWYRTAPGKERELVAAISSSGGRTYYADSVKGRFTLSRDNAKNTVYLQMISLKPEDTAVYYCNAAYYYTYGYWGQGTEVTVSS is ____.
Result: high polyreactivity

Query: Which polyreactivity (PSR sort gate) is listed for QVQLVESGGGLVQAGGSLRLSCAASGFILDTYGMGWYRQAPGKERELVAAISQSDVSTYYADSVKGRFTISRDNAKNTVYLQMNSLKQEDTAVYYCAADRGGLRWFWQVVYDYWGQGTQVTVSS ?
Result: low polyreactivity

Query: Query (sequence): QVQLVESGGGLVQAGGSLRLSCAASGYILGVYAMGWYRQAPGKERDLVASISRSGGSTYYADSVKGRFTISRDNAKNTVYLQMNSLKTEDSAVYYCSNRSRTAHFRLRYDYWGQGTQVTVSS ; field requested: polyreactivity (PSR sort gate)
Result: low polyreactivity

Query: Form field: reported polyreactivity (PSR sort gate) of QVQLVESGGGLVQARGSLRLSCSSSGSIFASYAMGWYRRAPGKERELVAAISRRAVLTYYADSVKGSFTISRDNAKNTVYLQMNSLKPEDTAVYYCNARGYSGYQRYGYNYWGQGTQVTVSS
Result: high polyreactivity

// below: polyreactivity (PSR sort gate) requested for another sequence
Query: If you can, please state the reported polyreactivity (PSR sort gate) value of QVQIVESGRGLVQAGGSLRLSCAASGSIFHPKAMGWYRQAPGKERELVAAITSGGGSTYYADSVKVRYTISRDNAKNTVYLQMNSLKPEDTAVYYCNKVFVLPYKFVAWFDYWGQGTQVTVSS .
Result: low polyreactivity
